Reported growth by item:
- System: OVCAR-4 ovarian
- test.name: NCI-60 one-dose screen, 48 h (100 = growth as untreated, 0 = no growth, -100 = all killed)
- condition.notes: 10 µM unless noted
This is part of a sample that, as a whole, favours compounds with a hit. Of some 83,000 tested, about 20% had one in any assay. The source made the active and inactive calls. The calls were made as follows: active = growth percent below 10; inactive = the rest.
measurement.name: growth

| molecule | measurement.name | reading |
| --- | --- | --- |
| Cc1cc(C)cc(NC(=O)Cn2nncc2CN2C(=O)CSC2=O)c1 | growth | 106% (inactive) |
| CCN(CC)CCCC(C)Nc1cnc(C(=O)Nc2cccc3ccc(OC)nc23)cn1 (stereo unspecified) | growth | 98.1% (inactive) |
| CC1=NN(c2cccc(S(N)(=O)=O)c2)C(=O)C1 | growth | 99.4% (inactive) |
| O=C(CSc1ccc(Cl)cc1)Nc1ccc(-c2nc3ccccc3s2)c(Cl)c1 | growth | 57.6% (inactive) |
| CSCCC1NC(=O)C(C(C)=Nc2ccccc2)=C1O (stereo unspecified) | growth | 100% (inactive) |
| O=C(Nc1ccc(Br)cc1)Nc1ccccc1Cl | growth | 75.1% (inactive) |
| C=C(C)c1ccc(/C=N/NC(N)=S)cc1 | growth | 83.7% (inactive) |
| COc1ccc(-c2nsc3c2NC(=O)CC3c2cccc(F)c2)cc1 (stereo unspecified) | growth | 92.1% (inactive) |
| COc1ccc(CCN2COc3c([C@@H](C)CCC=C(C)C)ccc(C)c3C2)cc1OC | growth | 39.7% (inactive) |
| Cc1ccc(N2C3c4ccccc4N(S(=O)(=O)c4ccc(C)cc4)C2c2ccccc2N3S(=O)(=O)c2ccc(C)cc2)cc1 | growth | 93.9% (inactive) |
| COCCCNCC(=O)Nc1c(C)cccc1C | growth | 111% (inactive) |

* * *

- Test system: OVCAR-4 ovarian
- test.name: NCI-60 one-dose screen, 48 h
- condition.notes: 10 µM unless noted
Compounds without any hit were thinned out: in the full panel of roughly 83,000, 20% have a hit. The source made the active and inactive calls. How the source made its calls: active means growth percent below 10; inactive means the rest.
Labels: active, inactive

| molecule | label |
| --- | --- |
| CCOC(CN1CCN(CC(C)C(=O)c2ccccc2)CC1)c1ccccc1 (stereo not drawn) | inactive |
| Cc1ccc(-c2cnc3sc4ccc(Cl)cc4n23)cc1 | inactive |
| COc1cc2c(cc1I)-c1c(cc(OC)c(OC)c1OC)CC[C@@H]2NC(C)=O | inactive |
| CCOC(=O)C(Nc1ccccc1)C(=O)OCC | inactive |
| COc1c(B(O)O)cccc1-c1nc2ccc3[nH]ncc3c2c2c1CCCC2 | inactive |
| CC(=O)c1c(C)nc(-c2cc(C)cc(Cl)c2)nc1-c1cccc(Oc2ccccc2)c1 | inactive |
| CC(=O)c1cc(C(=O)c2ccc3c(c2)Sc2ccccc2N3)c2c(C)cccn12 | inactive |
| COc1ccc2[nH]c(O)c(/C=c3/ccc4c(c3)N=C(c3ccc(F)cc3)N=4)c2c1 | active |
| C=CCn1c(SCC(=O)Nc2ccc(C(=O)/C=C/c3ccc(Cl)cc3)cc2)nnc1-c1ccc(Cl)cc1 | inactive |
| CC(=O)c1c(O)c(C)c(O)c2c1OC1=CC(=O)/C(=C(/C)N)C(=O)C12C (stereo not drawn) | inactive |
| Nc1c(C(=O)c2ccc(Br)cc2)sc2nc3c(cc12)CCCC3 | inactive |
| COc1ccc(/C(=C\c2ccc3c(c2)OCO3)C(=O)Nc2nc3ccccc3s2)cc1 | inactive |
| Cc1ccc(-c2nc3ccccc3c(=O)n2/N=C/c2cccc3ccccc23)cc1 | inactive |
| Clc1ccc(-c2nc(Br)cn3ccnc23)cc1 | inactive |
| O=C(NO)c1ccc(NCc2csc3ccccc23)cc1 | inactive |
| COc1cc(C2CC(c3ccc(Cl)cc3)=NN2C=O)ccc1OS(=O)(=O)c1ccc(C)cc1 (stereo not drawn) | inactive |
| COc1ccc(OC)c(Nc2nc(-c3c(C)nc4sccn34)cs2)c1 | inactive |
| O=C(C=P(c1ccccc1)(c1ccccc1)c1ccccc1)CCl | active |
| COc1ccc(-c2nn(-c3cccc(Cl)c3)cc2/C=C2\C(=N)N(c3ccccc3)N=C2N)cc1 | inactive |
| CC(=O)N1N=C(c2ccc(C)cc2)CC1c1cn(-c2ccccc2)nc1-c1cccc(Nc2ccnc3cc(Cl)ccc23)c1 (stereo not drawn) | inactive |
| c1ccc(C2=Nc3ccccc3SC2)cc1 | inactive |
| O=C(Nc1ccc(Oc2ccc(NC(=O)Nc3ccccc3Cl)cc2)cc1)Nc1ccccc1Cl | inactive |
| COc1cc2nccc(Oc3ccc(NC(=O)C4(C(=O)Nc5ccc(F)cc5)CC4)cc3)c2cc1O | inactive |
| CCCCOc1ncnc2nc[nH]c12 | inactive |
| C/C(=N\OC(=O)Nc1cccc(Cl)c1)c1ccccc1 | inactive |
| Cc1ccc(S(=O)(=O)NC(CCC(=O)Nc2ccc(Cl)cc2)C(=O)Nc2ccc(Cl)cc2)cc1 (stereo not drawn) | inactive |
| COc1ccc(C2=CC(c3ccc(OC)cc3Br)N3C=CSC3=N2)cc1 (stereo not drawn) | inactive |
| O=C(CCCCCCc1nc2ccc(Br)cc2[nH]1)NO | inactive |
| CC1CCN(Cc2ccc(NC(=O)c3cc4ccc5cccnc5c4[nH]3)cc2)CC1 | inactive |
| O=C(O)Cn1ccc2ccccc21 | inactive |
| Cc1ccccc1CNc1ncnc2[nH]ncc12 | inactive |
| Cc1ccc(Nc2nc(NCCO)c3ccccc3n2)cc1C | inactive |
| COc1cc(OC)cc(-c2n/c(=C\c3c(O)[nH]c4ccc(Cl)cc34)cc3c2=Nc2ccccc2-3)c1 | inactive |
| c1ccc(-c2[nH]c3ccccc3c2-c2ccccc2)cc1 | inactive |
| CCCNC(=S)N/N=C(\C)c1ccccn1 | inactive |
| CCCCCCCCCCCCCC(=S)NCCCC[C@H](NC(=O)OCc1ccccc1)C(=O)Nc1ccccc1 | inactive |
| CCCCn1c(C)nc2ccc(Nc3nc(Cl)nc4nc[nH]c34)cc21 | inactive |
| Clc1cc(Br)ccc1-c1ccc(CNCC2CCNCC2)o1 | active |
| CCn1c(CN2CCN(Cc3ccccc3)CC2)nc2cc(NC(=O)c3cccs3)ccc21 | active |
| Cc1cc(Cl)c2ccc(N(C)C)cc2n1 | inactive |
| Cc1cc(C)c([O-])c(CN(C)CCN(C)Cc2cc(C)cc(C)c2[O-])c1.O=C([O-])c1cccc(C(=O)[O-])n1.[Ti+4] | inactive |
| CCCCNCC(O)c1cc(-c2ccc(C(F)(F)F)cc2)nc(-c2ccc(C(F)(F)F)cc2)c1 (stereo not drawn) | active |
| COc1ccc(C(=O)C(C#N)c2cc(OC)c(OC)c(OC)c2)cc1 (stereo not drawn) | inactive |

* * *

- Tested on: EKVX NSCLC
- test.name: NCI-60 one-dose screen, 48 h
- condition.notes: 10 µM unless noted
Compounds without any hit were thinned out: in the full panel of roughly 83,000, 20% have a hit. Calls of active or inactive are those of the source. The calls were made as follows: active = growth percent below 10; inactive = the rest.
Labels: yes (1) for active, no (0) for inactive

| compound | label |
| --- | --- |
| C#CC[C@@H]1C[C@]2(C)[C@H]3CC=C4[C@H]5CC(C)(C)CC[C@]5(C(=O)NCCCCN)CC[C@@]4(C)[C@]3(C)CC[C@H]2C(C)(C)[C@H]1OC(C)=O | no (0) |
| CC(C)(C)CC(C)(C)NCc1cc(C(C)(C)C)cc(CNC(C)(C)CC(C)(C)C)c1O | no (0) |
| Oc1c(-c2cc(C(F)(F)F)[nH]n2)cc(Cl)c(OCc2ccc(Cl)cc2)c1-c1ccc(Cl)c(C(F)(F)F)c1 | yes (1) |
| OC(c1cc2cc(Cl)ccc2c2cc(C(F)(F)F)ccc12)C1CCCCN1 (stereo not drawn) | yes (1) |
| CNC(=O)c1cc(Oc2ccc(NC(=O)c3nc(S(C)(=O)=O)n(C)c3-c3ccc(F)cc3)cc2)ccn1 | no (0) |
| CC(=O)Nc1ccc(Cl)cc1Cl | no (0) |
| Nc1nc2ccc([C@@H]3Nc4ccc5[nH]ncc5c4[C@H]4[C@H]5CCC(C5)[C@H]43)cc2s1 | no (0) |
| COc1cc(-c2n/c(=C\c3c(O)[nH]c4cc(Cl)ccc34)cc3c2=Nc2ccccc2-3)cc(OC)c1OC | no (0) |

* * *

- System: MOLT-4 leukemia
- test.name: NCI-60 one-dose screen, 48 h (100 = growth as untreated, 0 = no growth, -100 = all killed)
- condition.notes: 10 µM unless noted
This is part of a sample that, as a whole, favours compounds with a hit. Of some 83,000 tested, about 20% had one in any assay. Activity calls are given as the source filed them. How the source made its calls: active means growth percent below 10; inactive means the rest.

| molecule | growth |
| --- | --- |
| O=C(OCc1ccc2c(Br)cc(Br)c(O)c2n1)c1cc2ccccc2[nH]1 | -8.64% (active) |
| CC(=O)Nc1ccc(Cl)cc1Cl | 71.3% (inactive) |
| O=C(NO)c1ccc(NCc2csc3ccccc23)cc1 | 43.1% (inactive) |
| COc1ccc(-c2oc(=O)ccc2-c2cc(OC)c(OC)c(OC)c2)cc1F | 83.6% (inactive) |
| O=C(CS)OCC(COC(=O)CS)(COC(=O)CS)COC(=O)CS | 3.08% (active) |
| COc1ccc(/C=C2\CCCC3=C2N=C2SC(C)=NN2C3c2ccc(OC)c(OC)c2)cc1OC (stereo not given) | 27.7% (inactive) |
| C[C@@H](C[C@H](CC1CC1)c1ccccc1)c1ccc2ccccc2c1 | 105% (inactive) |
| Cc1ccc(N2C3c4ccccc4N(S(=O)(=O)c4ccc(C)cc4)C2c2ccccc2N3S(=O)(=O)c2ccc(C)cc2)cc1 | 93.5% (inactive) |
| O=C1OCC2=C1C(c1cccc(Br)c1)c1cc3c(cc1N2CCO)OCCO3 (stereo not given) | 20.5% (inactive) |
| C=CCn1c(SCC(=O)Nc2ccc(/C(C)=N\O)cc2)nnc1-c1cc(-c2ccccc2)nc2ccccc12 | 3.61% (active) |
